TARGET: corticotropin releasing factor 1 receptor
ASSAY_INFO: cell-based or functional assay
Ends that are not written are not given here.
Think of 200 nM as a floor: if CRF1R EC50 stands on it or above, it is 1 (yes); beneath it, 0 (no).

Task: Could you verify whether the entry ZGPPISIDLPLLLLRKMIEIEKQEKEKQQAANNRLLLDTI (C-terminal amide) [SEQ ID NO 188] shows CRF1R EC50 of no less than 200 nM?
Output: 0 (no)

Task: Could you verify whether the entry ZGPPISIDLPFQLLRKMIEIEKQEKEKQQATNNRLLLATV (C-terminal amide) [SEQ ID NO 12] shows CRF1R EC50 of no less than 200 nM?
Output: 1 (yes)

Task: Could you verify whether the entry ZGPPISIDLPILLLRKMIEIEKQEKEKQQAANNRLLLDTI (C-terminal amide) [SEQ ID NO 35] shows CRF1R EC50 of no less than 200 nM?
Output: 1 (yes)

Task: Could you verify whether the entry ZGPPISIDLPAYLLRKMIEIEKQEKEKQQAANNRLLLDTI (C-terminal amide) [SEQ ID NO 32] shows CRF1R EC50 of no less than 200 nM?
Output: 1 (yes)

Task: Could you verify whether the entry SQEPPISLDLPLGLLREVLEMTKADQLAQQAHSNRKLLDIA-NH2 [SEQ ID NO 90] shows CRF1R EC50 of no less than 200 nM?
Output: 0 (no)

Task: Could you verify whether the entry ZGPPISIDLPFELLRKMIEIEKQEKEKQQAANNRLLLDTI (C-terminal amide) [SEQ ID NO 67] shows CRF1R EC50 of no less than 200 nM?
Output: 0 (no)
